Square brackets hold non-standard residues; d marks the D form. Peptide text beside a SMILES is read from it. aIle = CC[C@@H](C)[C@H](N)C(=O)O; Tle = CC(C)(C)[C@H](N)C(=O)O; Nle = CCCC[C@H](N)C(=O)O
Measured pKi on purified porcine DP IV (Sus scrofa, UniProt P22411) follows.
Sequence (P22411 whole entry): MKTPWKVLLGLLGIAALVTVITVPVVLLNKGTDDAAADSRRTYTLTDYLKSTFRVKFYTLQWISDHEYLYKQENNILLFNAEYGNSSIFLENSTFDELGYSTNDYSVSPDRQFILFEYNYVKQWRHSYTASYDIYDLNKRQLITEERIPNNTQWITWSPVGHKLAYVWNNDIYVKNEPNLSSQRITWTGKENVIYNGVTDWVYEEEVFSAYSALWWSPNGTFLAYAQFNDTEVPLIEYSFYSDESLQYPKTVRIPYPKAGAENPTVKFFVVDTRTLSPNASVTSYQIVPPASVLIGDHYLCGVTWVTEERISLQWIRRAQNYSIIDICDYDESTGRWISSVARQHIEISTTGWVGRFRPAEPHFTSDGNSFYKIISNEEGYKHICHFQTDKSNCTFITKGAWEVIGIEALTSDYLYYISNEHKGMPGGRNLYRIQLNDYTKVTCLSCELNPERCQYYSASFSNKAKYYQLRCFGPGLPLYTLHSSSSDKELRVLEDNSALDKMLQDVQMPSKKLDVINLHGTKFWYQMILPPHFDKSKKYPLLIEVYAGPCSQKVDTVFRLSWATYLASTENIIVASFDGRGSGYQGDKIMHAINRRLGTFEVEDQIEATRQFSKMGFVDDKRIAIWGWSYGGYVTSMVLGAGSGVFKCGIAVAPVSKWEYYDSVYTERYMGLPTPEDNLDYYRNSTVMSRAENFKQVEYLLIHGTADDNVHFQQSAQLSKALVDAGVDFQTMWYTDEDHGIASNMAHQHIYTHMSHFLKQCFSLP
One number for each entry, as −log10 of the molar value.

1) CCCC[C@H](N)C(=O)N1CCC[C@H]1C(=O)N[C@H](C(=O)O)[C@@H](C)CC [Nle−Pro-Ile, Nle-Pro-Ile] (H-[Nle]-Pro-Ile-OH; N-terminus and C-terminus assumed) :: 5.02

# per-item lookup of pKi; items listed below
1. CC[C@@H](C)[C@H](NC(=O)[C@@H]1CCCN1C(=O)[C@@H](N)Cc1ccc(O)cc1)C(=O)O [Tyr-Pro-(allo)Ile, Tyr-Pro-allo-Ile] (H-Tyr-Pro-[aIle]-OH; N-terminus and C-terminus assumed)
2. CC(C)[C@@H](NC(=O)[C@@H]1CCCN1C(=O)[C@@H](N)C(C)(C)C)C(=O)O [t-butyl-Gly-Pro-D-Val] (H-[Tle]-Pro-[dV]-OH; N-terminus and C-terminus assumed)

1: 4.74; 2: 4.58

These data points were gathered from patent US20030135023A1.
